METHOD_SUMMARY: Nrf2 qHTS screen for inhibitors: Validation (AID 493153)
TEST_CONTEXT: A549 ARE-Fluc reporter, 18-24 h; measured here: cytotoxicity max response
Inconclusive results are not listed.
PROPERTY_NAME: viability change
Respond with the figure and its unit, in that order.

Prompt line: Could you please provide reported viability change for O=C(O)CN(CCN(CC(=O)O)CC(=O)O)CCN(CC(=O)O)CC(=O)O ? Thanks!
Response line: -0.829%

Prompt line: Could you please provide reported viability change for C[C@@H](O)[C@H]1C(=O)N2C(C(=O)O)=C(SCCN=CN)C[C@H]12 ? Thanks!
Response line: -3.32%

Prompt line: Could you please provide reported viability change for C[N+](C)(C)CCOC(=O)CCC(=O)OCC[N+](C)(C)C ? Thanks!
Response line: 0.0745%

---

Test system: MCC-26
METHOD_SUMMARY: qHTS assay to identify novel small-molecules to repurpose for Merkel cell carcinoma treatment (AID 1296009); also: % is scaled to controls: 0 for no effect and ±100 for the full control effect; nearly all actives have a fitted effect of over 60% in size
TEST_CONTEXT: MCC and control cell lines, CellTiter-Glo viability, 72 h; series mostly up to 46 µM
From the text: MCC is a rare and aggressive neuroendocrine skin cancer with limited treatment options. Approximately 80% of MCCs have the Merkel cell polyomavirus (MCPyV) DNA integrated into the host genome (virus-positive: VP-MCC) and viral oncogenes drive oncogenesis. The remaining MCCs are virus-negative (VN-MCC) and are caused by UV mutagenesis. […] Using cell viability as a readout (CellTiter-Glo assay) we found both overlapping and distinct drugs that can be repurposed for the treatment of VP-MCC and VN-MCC. […]
Records with an inconclusive call do not appear. Activity calls are given as the source filed them. Calls follow the shape of the dose curve; as a rule, active = well fitted inhibition curve with a large enough effect; inconclusive = small, poorly fitted or top-dose-only effect; inactive = flat fitted curve, though single readings scatter.
PROPERTY_NAME: outcome

[[record]]
compound_smiles = "Fc1ccc(C(c2ccc(F)cc2)N2CCN(C/C=C/c3ccccc3)CC2)cc1"
value_measured = "inactive"

[[record]]
compound_smiles = "CN1C(=O)CC[C@H]1c1cccnc1"
value_measured = "inactive"

[[record]]
compound_smiles = "NC/C=C/C(=O)O"
value_measured = "inactive"


---

Test system: CP297
METHOD_SUMMARY: qHTS profiling for inhibitors of Plasmodium falciparum proliferation (AID 504749); also: nearly all actives have a fitted effect of over 60% in size
TEST_CONTEXT: P. falciparum in erythrocytes, SYBR Green DNA, 72 h; series mostly up to 28.7 µM
Results filed as inconclusive are left out. Calls of active or inactive are those of the source. Calls follow the shape of the dose curve; as a rule, active = well fitted inhibition curve with a large enough effect; inconclusive = small, poorly fitted or top-dose-only effect; inactive = flat fitted curve, though single readings scatter.
Result category, one only: TRUE for active, FALSE for inactive

Prompt line: How did this test come out for COc1ccc([C@@H]2Sc3ccccc3N(CCN(C)C)C(=O)[C@@H]2OC(C)=O)cc1 ?
Response line: FALSE

Prompt line: How did this test come out for COC(=O)[C@H]1[C@H]2C[C@@H]3c4[nH]c5cc(OC)ccc5c4CCN3C[C@H]2C[C@@H](OC(=O)c2cc(OC)c(OC)c(OC)c2)[C@@H]1OC ?
Response line: TRUE

Prompt line: How did this test come out for COCC(=O)O[C@]1(CCN(C)CCCc2nc3ccccc3[nH]2)CCc2cc(F)ccc2[C@@H]1C(C)C ?
Response line: TRUE

Prompt line: How did this test come out for Nc1c2c(nc3ccccc13)CCCC2O (stereo not given) ?
Response line: FALSE

Prompt line: How did this test come out for CN(C)CCCN1c2ccccc2Sc2ccc(C(F)(F)F)cc21 ?
Response line: FALSE

---

System: CP215
METHOD_SUMMARY: qHTS profiling for inhibitors of Plasmodium falciparum proliferation (AID 504749); also: nearly all actives have a fitted effect of over 60% in size
TEST_CONTEXT: P. falciparum in erythrocytes, SYBR Green DNA, 72 h; series mostly up to 28.7 µM
Records with an inconclusive call do not appear. Calls of active or inactive are those of the source. The call rests on the fitted dose curve; in most records, active means well fitted inhibition curve with a large enough effect; inconclusive means small, poorly fitted or top-dose-only effect; inactive means flat fitted curve, though single readings scatter.
Result category, one only: active, inactive

Prompt line: How did this test come out for CCOC(=O)c1cnc2c(cnn2CC)c1NN=C(C)C ?
Response line: inactive

Prompt line: How did this test come out for CC(C)[N+](C)(CCOC(=O)C1c2ccccc2Oc2ccccc21)C(C)C ?
Response line: inactive

Prompt line: How did this test come out for Cc1ccc(S(=O)(=O)NC(=O)NN2CCCCCC2)cc1 ?
Response line: inactive

Prompt line: How did this test come out for NC(=Nc1ccccc1)Nc1ccccc1 ?
Response line: inactive

Prompt line: How did this test come out for NC(=O)c1cn(Cc2c(F)cccc2F)nn1 ?
Response line: inactive

Prompt line: How did this test come out for CCNC(=O)N1CCN(CCCC(c2ccc(F)cc2)c2ccc(F)cc2)CC1 ?
Response line: active

Prompt line: How did this test come out for CSc1ccc(C(=O)c2[nH]c(=O)[nH]c2C)cc1 ?
Response line: inactive

Prompt line: How did this test come out for CCCN1C[C@H](CSC)C[C@@H]2c3cccc4[nH]cc(c34)C[C@H]21 ?
Response line: inactive

Prompt line: How did this test come out for O=C1CC2(CCCC2)CC(=O)N1CCCCN1CCN(c2ncccn2)CC1 ?
Response line: inactive

Prompt line: How did this test come out for CC(C)COCC(CN(Cc1ccccc1)c1ccccc1)N1CCCC1 (stereo not given) ?
Response line: active
